All values here come from ChEMBL document CHEMBL4825723.

# Tested on: U-937
# Assay Explanation: Cytotoxicity against human U-937 cells assessed as cell viability at 0.01 uM measured after 72 hrs
# Format: cell-based
# Assay Context: u-937, 72 h
Measurement Type: Activity

Study these solved cases before continuing.
Please list Activity recorded for the molecule CO[C@@]1(c2ccccc2)c2ccccc2O[C@H]1c1ccccc1
Non-Toxic

Please list Activity recorded for the molecule COC1(c2ccc(Br)cc2)c2ccccc2OC1c1ccccc1 (mixture of isomers)
Toxic

Please list Activity recorded for the molecule COc1ccc2c(c1)[C@@H](c1ccc(Br)cc1)[C@H](c1ccccc1)O2
Non-Toxic

Please list Activity recorded for the molecule COc1ccc2c(c1)[C@@H](c1ccc(Br)cc1)[C@@H](c1ccccc1)O2
Non-Toxic

Please list Activity recorded for the molecule COc1ccc2c(c1)[C@@H](c1ccccc1)[C@H](c1ccccc1)O2
Non-Toxic

Moving on to the next molecule.
Please list Activity recorded for the molecule COc1ccc2c(c1)C(c1cc(Br)cc(Br)c1)C(c1ccccc1)O2 (stereo unspecified)
Non-Toxic
